Molecular target: T1, Human OSM (human, UniProt P13725 26-221)
T1 construct: Recombinant human OSM; also called hOSM; human Oncostatin M
T1 sequence: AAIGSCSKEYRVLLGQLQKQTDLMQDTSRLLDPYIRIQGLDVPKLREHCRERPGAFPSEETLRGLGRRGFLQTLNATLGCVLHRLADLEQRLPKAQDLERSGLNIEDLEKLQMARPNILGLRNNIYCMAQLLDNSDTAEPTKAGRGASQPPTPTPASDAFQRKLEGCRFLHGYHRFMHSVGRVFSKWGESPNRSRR
Assay: BIAcore kinetics, transfection supernatant
Catalogue of Kd values
Provide the reading as a plain figure in nM.

Below: 4 binders and their reported Kd.
binder	Kd, nM
Humanised 10G8 H0L0 (antibody, V domains shown) VH: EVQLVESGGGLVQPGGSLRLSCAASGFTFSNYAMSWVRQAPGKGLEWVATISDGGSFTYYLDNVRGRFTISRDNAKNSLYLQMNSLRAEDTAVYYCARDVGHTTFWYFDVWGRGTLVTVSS VL: DIVMTQSPDSLAVSLGERATINCRASKSVSAAGYNFMHWYQQKPGQPPKLLIYYASNLESGVPDRFSGSGSGTDFTLTISSLQAEDVAVYYCLHSREFPFTFGGGTKVEIK	0.435
Humanised 10G8 H1L0 (antibody, V domains shown) VH: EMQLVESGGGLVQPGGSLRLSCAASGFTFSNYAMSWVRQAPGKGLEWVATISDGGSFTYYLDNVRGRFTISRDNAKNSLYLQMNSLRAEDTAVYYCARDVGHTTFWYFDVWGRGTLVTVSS VL: DIVMTQSPDSLAVSLGERATINCRASKSVSAAGYNFMHWYQQKPGQPPKLLIYYASNLESGVPDRFSGSGSGTDFTLTISSLQAEDVAVYYCLHSREFPFTFGGGTKVEIK	0.425
Humanised 10G8 H2L4 (antibody, V domains shown) VH: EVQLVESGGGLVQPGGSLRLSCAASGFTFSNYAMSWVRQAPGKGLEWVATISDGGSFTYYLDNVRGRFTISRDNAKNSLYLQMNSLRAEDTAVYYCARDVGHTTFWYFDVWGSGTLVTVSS VL: DIVMTQSPDSLAVSLGERATINCRASKSVSAAGYNFMHWYQQKPGQPPKVLIYYASNLESGVPDRFSGSGSGTDFTLTISSLQAEDVVVYYCLHSREFPFTFGGGTNVEIK	0.226
Humanised 10G8 H1L4 (antibody, V domains shown) VH: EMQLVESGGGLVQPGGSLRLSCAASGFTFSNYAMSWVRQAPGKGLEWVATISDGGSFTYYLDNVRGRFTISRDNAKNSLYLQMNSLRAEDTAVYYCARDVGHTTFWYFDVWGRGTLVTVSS VL: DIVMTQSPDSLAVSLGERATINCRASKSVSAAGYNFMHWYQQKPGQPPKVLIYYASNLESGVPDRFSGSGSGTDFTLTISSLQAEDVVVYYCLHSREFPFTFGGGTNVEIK	0.344

Now consider a different binder.
Query string: So what's the measured Kd for this one? Humanised 10G8 H2L0 (antibody, V domains shown) VH: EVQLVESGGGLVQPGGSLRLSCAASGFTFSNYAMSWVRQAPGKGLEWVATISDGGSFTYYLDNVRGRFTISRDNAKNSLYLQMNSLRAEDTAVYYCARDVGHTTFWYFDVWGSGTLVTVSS VL: DIVMTQSPDSLAVSLGERATINCRASKSVSAAGYNFMHWYQQKPGQPPKLLIYYASNLESGVPDRFSGSGSGTDFTLTISSLQAEDVAVYYCLHSREFPFTFGGGTKVEIK
Result string: 0.398
